The reported numbers originate from patent US10894786B2.

The following molecules are shown together with reported CDK12 Target Occupancy (Tocc50) μM in Jurkat cells values.
# Target Entity: CDK12 (Homo sapiens (Human), UniProt Q9NYV4)
# Assay Remarks: CDK12 plate based target engagement assay in Jurkat cells
# Type: cell-based
# Measurement Conditions: Jurkat cells, 6 hours
# Sequence (Q9NYV4 whole entry, looked up): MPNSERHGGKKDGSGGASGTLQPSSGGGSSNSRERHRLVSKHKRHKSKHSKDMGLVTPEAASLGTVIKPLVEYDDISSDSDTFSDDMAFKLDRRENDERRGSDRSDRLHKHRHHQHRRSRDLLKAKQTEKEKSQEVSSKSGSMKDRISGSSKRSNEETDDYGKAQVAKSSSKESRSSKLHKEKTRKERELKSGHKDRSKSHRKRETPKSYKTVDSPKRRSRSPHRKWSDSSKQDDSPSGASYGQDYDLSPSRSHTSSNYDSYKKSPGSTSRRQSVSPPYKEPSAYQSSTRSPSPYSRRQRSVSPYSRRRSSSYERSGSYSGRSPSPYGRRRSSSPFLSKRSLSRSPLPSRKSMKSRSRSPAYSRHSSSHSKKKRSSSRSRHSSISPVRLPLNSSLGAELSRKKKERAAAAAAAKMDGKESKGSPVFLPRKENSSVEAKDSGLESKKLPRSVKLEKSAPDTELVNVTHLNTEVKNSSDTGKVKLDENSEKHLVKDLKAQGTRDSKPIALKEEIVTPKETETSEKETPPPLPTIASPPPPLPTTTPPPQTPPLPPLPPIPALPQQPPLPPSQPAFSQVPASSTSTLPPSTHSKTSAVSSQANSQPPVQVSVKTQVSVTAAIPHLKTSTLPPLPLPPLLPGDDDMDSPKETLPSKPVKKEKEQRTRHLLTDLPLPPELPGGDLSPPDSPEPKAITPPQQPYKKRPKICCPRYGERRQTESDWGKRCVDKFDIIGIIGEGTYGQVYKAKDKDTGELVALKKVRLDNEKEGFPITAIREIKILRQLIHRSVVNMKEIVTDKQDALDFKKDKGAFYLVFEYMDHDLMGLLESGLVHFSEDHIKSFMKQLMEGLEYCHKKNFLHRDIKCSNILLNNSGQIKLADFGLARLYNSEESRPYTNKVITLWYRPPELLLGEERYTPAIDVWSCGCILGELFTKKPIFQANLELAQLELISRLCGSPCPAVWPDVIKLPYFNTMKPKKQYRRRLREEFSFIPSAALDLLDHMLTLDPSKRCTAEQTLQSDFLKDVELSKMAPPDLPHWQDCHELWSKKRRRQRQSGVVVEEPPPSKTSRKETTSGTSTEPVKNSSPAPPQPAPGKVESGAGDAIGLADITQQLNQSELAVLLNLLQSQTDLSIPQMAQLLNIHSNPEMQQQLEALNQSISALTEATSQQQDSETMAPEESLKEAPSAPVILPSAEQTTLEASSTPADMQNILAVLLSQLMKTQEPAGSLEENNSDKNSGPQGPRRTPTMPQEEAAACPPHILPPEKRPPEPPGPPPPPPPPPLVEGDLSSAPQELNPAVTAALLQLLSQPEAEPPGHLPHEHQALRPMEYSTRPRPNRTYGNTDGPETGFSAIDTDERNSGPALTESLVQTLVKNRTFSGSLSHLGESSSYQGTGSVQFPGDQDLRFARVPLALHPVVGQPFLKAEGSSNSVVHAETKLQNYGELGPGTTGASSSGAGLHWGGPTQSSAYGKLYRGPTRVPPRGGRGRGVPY
# Sequence (O75909 whole entry partner, looked up): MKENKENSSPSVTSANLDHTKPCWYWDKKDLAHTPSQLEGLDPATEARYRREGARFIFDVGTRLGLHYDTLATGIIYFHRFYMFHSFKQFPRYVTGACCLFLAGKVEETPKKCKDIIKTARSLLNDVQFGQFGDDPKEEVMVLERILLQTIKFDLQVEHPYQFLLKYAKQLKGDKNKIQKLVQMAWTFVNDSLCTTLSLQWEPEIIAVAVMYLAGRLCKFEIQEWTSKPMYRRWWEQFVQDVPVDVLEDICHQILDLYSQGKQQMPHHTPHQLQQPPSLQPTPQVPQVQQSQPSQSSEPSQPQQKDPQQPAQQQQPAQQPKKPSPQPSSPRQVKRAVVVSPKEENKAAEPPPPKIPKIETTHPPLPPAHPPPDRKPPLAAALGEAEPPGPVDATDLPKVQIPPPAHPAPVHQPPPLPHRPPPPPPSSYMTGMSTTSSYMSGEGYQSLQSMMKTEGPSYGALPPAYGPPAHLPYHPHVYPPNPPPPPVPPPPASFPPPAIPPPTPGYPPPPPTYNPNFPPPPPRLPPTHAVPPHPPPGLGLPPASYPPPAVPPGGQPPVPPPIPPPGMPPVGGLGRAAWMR
Lab book: enter the figure in µM, no units written.

Examples with answers:
{"Molecule": "C=CC(=O)N1CCC(c2ccc([C@H](C)C(=O)Nc3cc(C4CC4)[nH]n3)cc2)CC1", "Target Entity": "CDK12 (Homo sapiens (Human), UniProt Q9NYV4)", "Reported Result": 0.080}
{"Molecule": "C#CC(=O)N1CC=C(c2ccc(CC(=O)Nc3cc(C4CC4)[nH]n3)cn2)C1", "Target Entity": "CDK12 (Homo sapiens (Human), UniProt Q9NYV4)", "Reported Result": 0.0088}
{"Molecule": "C=CC(=O)N1CCN(c2ccc(C(C)C(=O)Nc3cc(C4CC4)[nH]n3)cc2)CC1 (centres unmarked)", "Target Entity": "CDK12 (Homo sapiens (Human), UniProt Q9NYV4)", "Reported Result": 0.030}
{"Molecule": "CC#CC(=O)N1CCC=C(c2ccc(C(C)C(=O)Nc3cc(C4CC4)[nH]n3)cn2)C1 (centres unmarked)", "Target Entity": "CDK12 (Homo sapiens (Human), UniProt Q9NYV4)", "Reported Result": 0.179}
{"Molecule": "C#CC(=O)N1CCC=C(c2ccc(CC(=O)Nc3cc(C4CC4)[nH]n3)cn2)C1", "Target Entity": "CDK12 (Homo sapiens (Human), UniProt Q9NYV4)", "Reported Result": 0.0097}

For the molecule N#CN1CCC=C(c2ccc(CC(=O)Nc3cc(C4CC4)[nH]n3)cn2)C1 , what CDK12 Target Occupancy (Tocc50) μM in Jurkat cells is on record?
0.007

For the molecule C=CC(=O)N1CC=C(c2ccc(CC(=O)Nc3cc(C4CC4)[nH]n3)cn2)C1 , what CDK12 Target Occupancy (Tocc50) μM in Jurkat cells is on record?
0.014

For the molecule C=CC(=O)N1CCC=C(c2ccc(C(C)C(=O)Nc3cc(C4CC4)[nH]n3)cn2)C1 (single isomer, unassigned) , what CDK12 Target Occupancy (Tocc50) μM in Jurkat cells is on record?
0.012

---

What follows is a collection of IC50 values obtained with UniProtKB Q9NYV4.
Lab book: enter the figure in nM, no units written.

For the molecule C=CC(=O)N1CCC=C(c2ccc(C(CC)C(=O)Nc3cc(C4CC4)[nH]n3)cn2)C1 (stereo not drawn) , what IC50 is on record?
41

For the molecule C=CC(=O)N1CCC=C(c2ccc(C(C(=O)Nc3cc(C4CC4)[nH]n3)C(C)C)cn2)C1 (stereo not drawn) , what IC50 is on record?
178

For the molecule C=CC(=O)N1CCC(c2ccc([C@H](C)C(=O)Nc3cc(C4CC4)[nH]n3)cc2)CC1 , what IC50 is on record?
151

For the molecule C=CC(=O)N1CC=C(c2ccc(C(C)C(=O)Nc3cc(C4CC4)[nH]n3)cn2)CC1 (single isomer, unassigned) [Compound 6] , what IC50 is on record?
40

For the molecule C=CC(=O)N1CC=C(c2ccc(C(C)C(=O)Nc3cc(C4CC4)[nH]n3)cn2)C1 (stereo not drawn) [Compound 47] , what IC50 is on record?
676

For the molecule C=CC(=O)N1CC=C(c2ccc(C(C)C(=O)Nc3cc(C4CC4)[nH]n3)cn2)C1 (stereo not drawn) [Compound 38] , what IC50 is on record?
34

For the molecule C=CC(=O)N1CCC=C(c2ccc(C(C)C(=O)Nc3cc(C4CC4)[nH]n3)cn2)C1 (stereo not drawn) [Compound 35] , what IC50 is on record?
30

For the molecule C=CC(=O)NC1CCC(c2ccc(C(C)C(=O)Nc3cc(C4CC4)n[nH]3)cc2)CC1 (single isomer, unassigned) , what IC50 is on record?
740

For the molecule C=CC(=O)N1CCN(c2ccc(C(C)C(=O)Nc3cc(C4CC4)[nH]n3)cc2)CC1 (single isomer, unassigned) [Compound 18] , what IC50 is on record?
238
